Assay: Solubility at different pH's, chemiluminescent nitrogen detector (C.3.b)
Type: physicochemical
Conditions: pH 2.3, aqueous buffer, read-out: Solubility C.3.b. pH = 2.3 mg/ml
ENDPOINT LABEL: solubility (mg/mL)
Numeric only. Scale: mg/mL

Input O=C(NO)c1cnc(N2CCN(C(/C=C/c3ccccc3)C(=O)NCCO)CC2)nc1 (stereo not shown) [Compound 19] , output reported solubility.
2.6

Input O=C(NO)c1cnc(N2CCN(C(/C=C/c3ccccc3)CN3CCOCC3)CC2)nc1 (stereo not shown) [Compound 21] , output reported solubility.
2.1

Input CCOCC(/C=C/c1ccccc1)N1CCN(c2ncc(C(=O)NO)cn2)CC1 (stereo not shown) [Compound 24] , output reported solubility.
4

Input CCN(C)C(=O)C(C)(/C=C/c1ccc(F)cc1)N1CCN(c2ncc(C(=O)NO)cn2)CC1 (stereo not shown) [Compound 14] , output reported solubility.
2.8

Input CN(C)C(=O)C(C)(/C=C/c1ccc(F)cc1)N1CCN(c2ncc(C(=O)NO)cn2)CC1 (stereo not shown) [Compound 10] , output reported solubility.
3

Input O=C(NO)c1cnc(N2CCN(C(/C=C/c3ccc(F)cc3)CO)CC2)nc1 (stereo not shown) [Compound 8] , output reported solubility.
2.9

Input O=C(NO)c1cnc(N2CCN(C(/C=C/c3ccccc3)C(=O)N3CCOCC3)CC2)nc1 (stereo not shown) [Compound 17] , output reported solubility.
2.2
